Let's look at some compounds and their measured TGI.
- System: SK-MEL-2 melanoma
- assay.summary: NCI tumour cell line growth inhibition, 48 h

Field: example entries. Status: answers known.
• CN(C)CCN(C(=Nc1ccccc1)N1CCCC1)c1ccccc1 = > 100 µM
• CC(=O)c1sc(=N)n(-c2c(C)cccc2C)c1C = > 100 µM
• O=C(N/N=C\C(F)(F)F)c1ccncc1 = > 100 µM

Item `CSc1cccc(NC(=O)OC2CCCCCCCCCCC2)c1` : provide TGI 39.4 µM

Item `COC(=O)[C@@H](C)C[C@H](Cc1ccccc1)NC(=O)c1csc([C@@H](C[C@H](C(C)C)N(C)C(=O)[C@H](C)NC(=O)[C@H]2CCCCN2C)OC(C)=O)n1` : provide TGI > 25 µM

Item C=CCCCc1ccc(C(O)CCCCCCCCCCCC)o1 (stereo unspecified) : provide TGI 42.9 µM

----------
- System: RPMI-8226 leukemia
- assay.summary: NCI tumour cell line growth inhibition, 48 h
readout.name: TGI

Field: example entries. Status: answers known.
• C=CCCCc1ccc(C(O)CCCCCCCCCCCC)o1 (stereo unspecified) = 44.7 µM
• CCOP(=O)(OCC)/C(C#N)=C/c1c[nH]c2ccccc12 = > 100 µM
• COC(=O)c1c(-c2ccccc2)c2sc3ccccc3n2c1N = > 100 µM
• CCCC[C@H]1CCN2C[C@@H](O)[C@@H](O)[C@H]2[C@@H]1O = > 100 µM
• CC(=O)Oc1ccc(C(c2ccc(OC(C)=O)cc2)c2ccccn2)cc1 = > 100 µM
• O=C1c2ccccc2-c2c1c(-c1cccc(Br)c1)nc1ccc3ccccc3c21 = > 100 µM

Item `O=C1NCCS(=O)(=O)/C1=C\C=C\c1cccc(C(F)(F)F)c1` : provide TGI 8.31 µM

Item `N#CC1=C(Cl)NC(Cl)=C(C#N)C1c1c(Cl)cccc1Cl` : provide TGI 46.4 µM

Item CC(CCCOC(c1ccccc1)(c1ccccc1)c1ccccc1)OC(=O)Nc1ccccc1 (stereo unspecified) : provide TGI 42.1 µM

Item `C=CS(=O)(=O)CCN1CC1` : provide TGI > 10 µM

Item `COc1ccc2c(c1OC)C(=O)c1cnccc1C2=O` : provide TGI > 100 µM

----------
- Tested on: HCT-116 colon
- assay.summary: NCI tumour cell line growth inhibition, 48 h
Let's look at some compounds and their measured TGI.

Field: example entries. Status: answers known.
* O=C(NO)c1ccc(O)c(O)c1 | > 100 µM
* [Cl][Cd][Cl] | 117 µM
* CCC(Oc1ccc(OC)c2ccccc(=O)c12)C(=O)O (stereo not drawn) | > 100 µM
* N#CCCN(CCN(CCC#N)C(=O)Nc1ccccc1)C(=O)Nc1ccccc1 | > 100 µM
* NC(=O)c1cccc([C@@H]2O[C@H](CO)[C@@H](O)[C@H]2O)c1 | 34.6 µM
* Cn1cnc([N+](=O)[O-])c1Sc1ncn[nH]1 | > 100 µM
* O=C1C2Nc3ccccc3SC2C(=O)N1c1ccccc1C(F)(F)F (stereo not drawn) | > 100 µM
* CCOC(=O)c1c(C)c(C)n2c1NC(=O)C2 | > 100 µM
* COC(=O)C1=CC2OC1(C)CCC2=O (stereo not drawn) | > 100 µM
* Cc1ccc(S(=O)(=O)c2c(N)n(CCN(C)C)c3nc4ccccc4nc23)cc1 | > 100 µM

Item COc1ccc2c(c1)CCC(OS(=O)(=O)CC13CCC(CC1=O)C3(C)C)C2=O (stereo not drawn) : provide TGI 53.3 µM

Item `CC(=O)Oc1ccc(C(c2ccc(OC(C)=O)cc2)c2ccccn2)cc1` : provide TGI > 100 µM

----------
- Tested on: HOP-62 NSCLC
readout.name: GI50

Item Nc1nc(N)c2nc(CNc3ccc(C(=O)NC(CCCCNC(=O)c4ccccc4C(=O)O)C(=O)O)cc3)cnc2n1 (stereo not given) : provide GI50 30.5 nM

Item `Cc1c(Sc2ccccc2)[n+](=O)c2cc(Cl)c(Cl)cc2n1[O-]` : provide GI50 > 100000 nM

----------
- System: PC-3 prostate
- assay.summary: NCI tumour cell line growth inhibition, 48 h
Let's look at some compounds and their measured TGI.

• CN(C)CCN(C(=Nc1ccccc1)N1CCCC1)c1ccccc1 = > 100 µM

Item O=C1C=CC(O)C2C1CC13SSC4(CC5C(=O)C=CC(O)C5N4C1=O)C(=O)N23 (stereo not given) : provide TGI 1.13 µM

Item `COC(=O)[C@@H](C)C[C@H](Cc1ccccc1)NC(=O)c1csc([C@@H](C[C@H](C(C)C)N(C)C(=O)[C@H](C)NC(=O)[C@H]2CCCCN2C)OC(C)=O)n1` : provide TGI > 25 µM

Item C/C=C(\C)C(=O)N[C@H]1C(O)C[C@]2(C)C3CC[C@@]4(C)C(CC[C@@H]4C(C)N(C)C)C3CCC2C1O (stereo not given in full) : provide TGI > 52.6 µM

----------
- Test system: OVCAR-4 ovarian
- assay.summary: NCI tumour cell line growth inhibition, 48 h
Let's look at some compounds and their measured TGI.

- O=C1c2nc3n(c2C(=O)c2c1nc1n2CCC1)CCC3: 14.9 µM
- CC1=CC(=O)N(c2c(C)cccc2Cl)C(C)N1 (stereo unspecified): > 100 µM
- O=[N+]([O-])c1ccc(S(=O)(=O)Cc2ccccc2)c2nonc12: 34.1 µM
- Cc1nc2c(=O)n3c4c(cccc4c2o1)CCC3: > 100 µM
- CCN(CC)CCO/N=C1/C=C2CCC3C(CC[C@@]4(C)C3CC[C@]4(C)O)[C@@]2(C)CC1 (stereo partly specified): > 100 µM
- Cn1cnc([N+](=O)[O-])c1Sc1ncn[nH]1: > 100 µM
- CC(=O)c1cc(C)n2c1CS[C@@H]2c1ccccc1: > 100 µM
- C[C@H]1C(=O)CC[C@]2(C)CCC(C(C)(C)O)CC12O (stereo partly specified): > 100 µM

Enter TGI (test system OVCAR-4 ovarian) for CN(C)CC1CN=C(NC(=O)Nc2ccccc2)O1 (stereo unspecified) > 100 µM

Enter TGI (test system OVCAR-4 ovarian) for CN1C(=O)C2C=C3CCCCC3=CC2N(C)C1=O (stereo unspecified) > 100 µM

Enter TGI (test system OVCAR-4 ovarian) for Cc1cc(Cl)ccc1C1OC(=O)c2c1ccc1ccccc21 (stereo unspecified) > 100 µM

Enter TGI (test system OVCAR-4 ovarian) for CC[C@@H]1/C=C/C=C/C[C@H](C)[C@@H](O)[C@](C)(O)C(=O)[C@H](C)[C@@H](O)[C@H](C)C(=O)[C@H](C)[C@@H](O)[C@H](C)/C=C/C(=O)O[C@H]2[C@@H](C)[C@@H](CC1)O[C@@]1(CC[C@@H](C)[C@@H](CC(C)O)O1)[C@@H]2C (stereo partly specified) 9.33 µM

Enter TGI (test system OVCAR-4 ovarian) for `CN1C(Cl)=NS(=O)(=O)c2ccccc21` > 100 µM

Enter TGI (test system OVCAR-4 ovarian) for `CC(=O)ON(C(C)=O)c1ccc(-c2nc3ccccc3s2)cc1C` > 100 µM

Enter TGI (test system OVCAR-4 ovarian) for `COc1ccc(C(=O)Nc2ccc3oc(-c4ccccc4)nc3c2)cc1` > 100 µM

Enter TGI (test system OVCAR-4 ovarian) for `COc1cc(/C=C/C(=O)c2cccnc2Nc2ccc(F)cc2)cc(OC)c1OC` 19 µM

----------
Let's look at some compounds and their measured TGI.
- Test system: EKVX NSCLC
- assay.summary: NCI tumour cell line growth inhibition, 48 h
Hi! Could you send only the number? It should be in µM, unit omitted.

- N#Cc1cc(S(=O)(=O)Nc2nc3ccccc3s2)c(SCc2ccccc2)cc1Cl: 34.5
- Cc1cccc2c(N)c3ccccc3nc12: 9.99

For the next question, use this compound.
Item `COc1ccc2nc(NC(=O)c3cccnc3Nc3cc(OC)c(OC)c(OC)c3)sc2c1` : provide TGI 55.6

----------
- Tested on: SW-620 colon
- assay.summary: NCI tumour cell line growth inhibition, 48 h
Let's look at some compounds and their measured TGI.

* NC(=O)c1cccc([C@@H]2O[C@H](CO)[C@@H](O)[C@H]2O)c1 | 42.8 µM
* O=C(O)c1ccccc1NC(=O)C1CCCCC1 | > 100 µM
* CC1=C(C(=O)Nc2ccc([N+](=O)[O-])cc2)C(c2ccccc2F)C(C(=O)Nc2ccc([N+](=O)[O-])cc2)=C(C)N1 | > 100 µM

Item `O=C(N/N=C\C(F)(F)F)c1ccncc1` : provide TGI > 100 µM

Item `CC1(C)[C@H]2Cc3cc(-c4cc5c(cn4)[C@@H]4C[C@H]([C@@H]5[C@@H]5c6cc(-c7cc8c(cn7)[C@@H]7C[C@H](C8)C7(C)C)ncc6[C@@H]6C[C@H]5C6(C)C)C4(C)C)ncc3[C@@H]1C2` : provide TGI > 100 µM
